- TEST_SUMMARY: Phase solubility diagram
- TEST_CONDITIONS: container M2
Parameter class (string): assigned from measured Highest drug concentration achieved with container. Ranges: low interval = under 6 mM, middle interval = from 6 mM up to 10 mM, high interval = 10 mM and over

Example entries and their recorded answers appear below.
COc1ccc2c(c1)c(CC(=O)O)c(C)n2C(=O)c1ccc(Cl)cc1
middle interval
CC[C@@]1(O)C(=O)OCc2c1cc1n(c2=O)Cc2cc3ccccc3nc2-1
high interval
CCCSc1ccc2nc(NC(=O)OC)[nH]c2c1
low interval
O=C1CCc2ccc(OCCCCN3CCN(c4cccc(Cl)c4Cl)CC3)cc2N1
low interval
O=C(NC1=CC(=O)[C@H]2O[C@H]2[C@H]1O)c1cc2ccccc2[nH]c1=O
high interval

# bin label for C[C@@H](c1ncncc1F)[C@](O)(Cn1cncn1)c1ccc(F)cc1F middle interval
